Assay: soluble fraction after stress (log2 fold change); higher = more stays soluble; pooled small domains, quantitative proteomics
Details: stress: pH 4
Quick reference: soluble fraction (log2) of the listed items.
Kindly provide the number alone.

Below are worked cases with known answers.
sequenceInput: HMHGSSSTVPPVKGLSFEQARLTLAENDLTVEISDSIYDRNARPGTVVESWPRAGSVVKQGRQVYVTVTAF
soluble fraction (log2): -0.685
//
sequenceInput: HMGKFMVQVGAFSRINGAEITRTKYDNLGTHKAIIKNLDGMNRVFLTGFLSEDEARDFIASSNLKGAFIIR
soluble fraction (log2): -0.0731
//
sequenceInput: HMEVMYFIYQQEEPMRIDKFLVNEMEDFSRNSIQIYIKDNHVLVNDKVVKANYILKKGDAISITIPDPI
soluble fraction (log2): -0.768

Asked: Any idea what soluble fraction (log2) was measured for HMDTLESYVKRLEKLEGIADSFKGVSKAFALQAGREIRIMVESEKITDEEAVWLSKDIARRIENELEYPG ?
Given back: -0.468
